# Tested on: Candida albicans
# Test Method Notes: Antifungal activity against Candida albicans SC5314 after 48 hrs by broth microdilution method
# Type: functional
# Test Conditions: SC5314, 48 h
Metric: MIC80

The cases that follow already have their MIC80 on record.
stdin: Give me measured MIC80, please, for this compound: `COc1c(O)c(-c2ccccc2)cc(O)c1-c1ccccc1`
stdout: > 128 µg/mL

stdin: Give me measured MIC80, please, for this compound: `COC1=C(c2cc(O)ccc2O)C(=O)C=C(c2ccccc2)C1=O`
stdout: 64 µg/mL

stdin: Give me measured MIC80, please, for this compound: COC12Oc3ccc(O)cc3C1(O)C(=O)C=C(c1ccccc1)C2=O (centres undefined)
stdout: > 128 µg/mL

***
stdin: Give me measured MIC80, please, for this compound: `Oc1cc(-c2ccccc2)c(O)c2c1-c1ccccc1CO2`
stdout: > 128 µg/mL

stdin: Give me measured MIC80, please, for this compound: `O=C1C=C(c2ccccc2)C(=O)C2=C1c1ccccc1CO2`
stdout: > 128 µg/mL

stdin: Give me measured MIC80, please, for this compound: `COc1c(O)c(-c2ccccc2)cc(O)c1-c1ccc(O)cc1`
stdout: 16 µg/mL

stdin: Give me measured MIC80, please, for this compound: `COC1=C(c2ccccc2)C(=O)C2=C(C1=O)c1ccccc1CO2`
stdout: > 128 µg/mL

stdin: Give me measured MIC80, please, for this compound: COC1(OC)C2C(=O)C=C(c3ccccc3)C1(O)Oc1ccc(O)cc12 (centres undefined)
stdout: > 128 µg/mL

stdin: Give me measured MIC80, please, for this compound: `COC1=C(c2ccccc2O)C(=O)C=C(c2ccccc2)C1=O`
stdout: 8 µg/mL

Hello, the source for this data is ChEMBL document CHEMBL3871273, in case you need it.
